Items are presented alongside their recorded glycan array binding signal (z-score).
- subject of test: Neu5Ac(a2-3)Gal(b1-3)GalNAc(b1-3)Gal(a1-4)Gal(b1-4)Glc
- method summary: glycan array binding signal (z-score within array); higher = stronger binding
- test settings: glycan notation: IUPAC condensed, linker removed
Many of the other results were omitted from the sample, so the strongest signals are more common in it than they were.
Reply briefly: the number, and no unit.

Here are 2 binders together with their reported answers.
| binder | glycan array binding signal (z-score) |
| --- | --- |
| SUN4 (Saccharomyces cerevisiae), P53616 (protein) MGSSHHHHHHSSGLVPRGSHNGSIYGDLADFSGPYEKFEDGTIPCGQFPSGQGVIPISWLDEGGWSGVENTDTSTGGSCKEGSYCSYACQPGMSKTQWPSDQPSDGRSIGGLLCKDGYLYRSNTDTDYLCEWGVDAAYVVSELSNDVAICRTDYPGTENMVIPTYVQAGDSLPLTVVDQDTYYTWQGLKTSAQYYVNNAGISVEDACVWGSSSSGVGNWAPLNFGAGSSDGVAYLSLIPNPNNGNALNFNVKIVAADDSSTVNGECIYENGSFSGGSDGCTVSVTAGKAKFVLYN | 0.263 |
| CLEC-6 (Homo sapiens), Q8WXI8 (protein) MGLEKPQSKLEGGMHPQLIPSVIAVVFILLLSVCFIASCLVTHHNFSRCKRGTGVHKLEHHAKLKCIKEKSELKSAEGSTWNCCPIDWRAFQSNCYFPLTDNKTWAESERNCSGMGAHLMTISTEAEQNFIIQFLDRRLSYFLGLRDENAKGQWRWVDQTPFNPRRVFWHKNEPDNSQGENCVVLVYNQDKWAWNDVPCNFEASRICKIPGTTLN | -0.144 |

Please turn your attention to the following entry.
Req: Sample Cohesin-mDCIR (Macaca mulatta) (protein) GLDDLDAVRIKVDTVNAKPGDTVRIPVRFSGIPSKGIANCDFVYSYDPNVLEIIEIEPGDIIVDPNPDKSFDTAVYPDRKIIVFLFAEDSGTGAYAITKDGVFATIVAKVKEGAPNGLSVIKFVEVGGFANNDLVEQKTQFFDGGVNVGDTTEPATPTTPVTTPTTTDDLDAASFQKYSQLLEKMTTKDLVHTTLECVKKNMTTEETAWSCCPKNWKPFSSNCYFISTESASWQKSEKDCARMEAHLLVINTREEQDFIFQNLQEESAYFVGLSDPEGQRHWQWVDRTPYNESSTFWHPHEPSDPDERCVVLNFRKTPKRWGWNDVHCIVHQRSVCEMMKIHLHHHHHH — what was its glycan array binding signal (z-score)?
Resp: -0.388
